Test system: forty-four human cancer cell lines
assay procedure: Cell proliferation assay (ATPlite, 72 hours) in the 44 cell line Oncolines panel
Assay type: cell-based
condition notes: cell line CCRF-CEM; read-out: cell panel IC50, CCRF-CEM
measure: pIC50
Note: pIC50 values are expressed as the negative base-10 logarithm of concentration in M.

# input Lab request: please report pIC50 under test system forty-four human cancer cell lines for COc1cccc2c1C(=O)c1c(O)c3c(c(O)c1C2=O)C[C@@](O)(C(=O)CO)C[C@@H]3O[C@H]1C[C@H](N)[C@H](O)[C@H](C)O1 [doxorubicin]
# output 7.70

---

experimental target: panel of more than 300 wild-type and mutant kinases (313 kinase panel) (Homo sapiens, UniProt P53778)
assay procedure: Kinase profiling in a biochemical assay panel (mobility shift assays and ELISA), %-inhibition at 1 μM; selectivity entropy
condition notes: kinase p38γ; 1 μM
measure: %-inhibition of p38γ (%)
Response body: numeric value in %, unit text excluded.

Recorded results for 7 compounds are shown here.
{"columns": ["smiles entry", "unit symbol", "%-inhibition of p38γ"],
 "data": [
  ["CS(=O)(=O)CCNCc1ccc(-c2ccc3ncnc(Nc4ccc(OCc5cccc(F)c5)c(Cl)c4)c3c2)o1", "%", -1.19],
  ["Cc1ccc(C(=O)Nc2ccc(CN3CCN(C)CC3)c(C(F)(F)F)c2)cc1C#Cc1cnc2cccnn12", "%", 86],
  ["Cc1ccc(Nc2nccc(N(C)c3ccc4c(C)n(C)nc4c3)n2)cc1S(N)(=O)=O", "%", -5],
  ["Cc1cn(-c2cc(NC(=O)c3ccc(C)c(Nc4nccc(-c5cccnc5)n4)c3)cc(C(F)(F)F)c2)cn1", "%", -15],
  ["CNC(=O)c1cc(Oc2ccc(NC(=O)Nc3ccc(Cl)c(C(F)(F)F)c3)c(F)c2)ccn1", "%", 16],
  ["CO[C@H]1C[C@@H]2CC[C@@H](C)[C@@](O)(O2)C(=O)C(=O)N2CCCC[C@H]2C(=O)O[C@H]([C@H](C)C[C@@H]2CC[C@@H](OC(=O)C(C)(CO)CO)[C@H](OC)C2)CC(=O)[C@H](C)/C=C(\\C)[C@@H](O)[C@@H](OC)C(=O)[C@H](C)C[C@H](C)/C=C/C=C/C=C/1C", "%", -5.48],
  ["CC(C)(C)c1nc(-c2cccc(NS(=O)(=O)c3c(F)cccc3F)c2F)c(-c2ccnc(N)n2)s1", "%", 0.311]
]}

Please turn your attention to the following entry.
# input Quick one: %-inhibition of p38γ for COc1cc(Nc2c(C#N)cnc3cc(OCCCN4CCN(C)CC4)c(OC)cc23)c(Cl)cc1Cl ?
# output -6

---

Test system: forty-four human cancer cell lines
assay procedure: Cell proliferation assay (ATPlite, 72 hours) in the 44 cell line Oncolines panel
Format: cell-based
condition notes: Homo sapiens, A498, read-out: cell panel IC50, A-498, cell line A-498
Recorded pIC50 by entry
Note: pIC50 values are expressed as the negative base-10 logarithm of concentration in M.

Recorded results for 2 compounds are shown here.
{"columns": ["smiles entry", "pIC50"],
 "data": [
  ["CC(=O)O[C@@]12CO[C@@H]1C[C@H](O)[C@@]1(C)C(=O)[C@H](O)C3=C(C)[C@@H](OC(=O)[C@H](O)[C@@H](NC(=O)OC(C)(C)C)c4ccccc4)C[C@@](O)([C@@H](OC(=O)c4ccccc4)[C@H]21)C3(C)C", 7.89],
  ["COc1cccc2c1C(=O)c1c(O)c3c(c(O)c1C2=O)C[C@@](O)(C(=O)CO)C[C@@H]3O[C@H]1C[C@H](N)[C@H](O)[C@H](C)O1", 7.02]
]}

Please turn your attention to the following entry.
# input Quick one: pIC50 for O=c1[nH]cc(F)c(=O)[nH]1 ?
# output 5.77
